- EXPERIMENTAL SYSTEM: rat A3 adenosine receptor (Rattus norvegicus);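 also: radioligand binding on membrane homogenates, 1 h incubation at 37 °C in duplicate, gamma counting of filter-bound radioactivity, nonspecific binding defined using 200 µM NECA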
- Sequence (P28647 1-320): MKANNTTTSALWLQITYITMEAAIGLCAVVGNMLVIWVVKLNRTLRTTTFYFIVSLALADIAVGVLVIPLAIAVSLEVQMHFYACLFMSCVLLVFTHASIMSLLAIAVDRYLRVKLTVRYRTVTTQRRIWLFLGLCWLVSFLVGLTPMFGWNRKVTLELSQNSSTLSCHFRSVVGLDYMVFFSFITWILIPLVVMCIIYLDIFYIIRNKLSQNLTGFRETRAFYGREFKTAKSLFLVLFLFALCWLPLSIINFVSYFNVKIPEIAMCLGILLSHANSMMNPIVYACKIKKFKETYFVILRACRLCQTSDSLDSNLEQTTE
- STATED CONDITIONS: ratio of Ki (A1) to Ki (A3), rat
REPORTED PROPERTY: A1/A3

Field: example entries. Status: answers known.
CCNC(=O)[C@H]1O[C@@H](n2cnc3c(NC(=O)c4ccc(OC)cc4)ncnc32)[C@H](O)[C@@H]1O [Compound 3c] = 0.10
CCNC(=O)[C@H]1O[C@@H](n2cnc3c(NC(=O)Nc4ccc(C(C)=O)cc4)ncnc32)[C@H](O)[C@@H]1O [Compound 3h] = 3.47

a = CCNC(=O)[C@H]1O[C@@H](n2cnc3c(NC(=O)N[C@H](C)c4ccccc4)ncnc32)[C@H](O)[C@@H]1O [Compound 3i]
b = CCNC(=O)[C@H]1O[C@@H](n2cnc3c(N(C(=O)Nc4ccc(Cl)cn4)C(=O)Nc4ccc(Cl)cn4)ncnc32)[C@H](O)[C@@H]1O [Compound 3o]
c = CCNC(=O)[C@H]1O[C@@H](n2cnc3c(NC(=O)c4ccccc4)ncnc32)[C@H](O)[C@@H]1O [Compound 3e]
d = CCNC(=O)[C@H]1O[C@@H](n2cnc3c(NC(=O)c4ccc(-c5ccccc5)cc4)ncnc32)[C@H](O)[C@@H]1O [Compound 3a]
## Input Could you please sort these 4 entries by A1/A3 from high to low? Returns: the labels arranged in the requested order.
## Output a, c, b, d
